# measurement.protocol: soluble fraction after stress (log2 fold change); higher = more stays soluble; pooled small domains, quantitative proteomics;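 also: 20 min heating vs room temperature control held 20 min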
# condition.set: stress: 75 degC
Entries get a class label from measured soluble fraction (log2). See ranges: low = under -1, medium = from -1 up to -0.1, high = -0.1 and over

Q: Class for HMLVGGPDTPSKVTVSFDLGSRQAVDELTERAGAAGGRIGDIDDYPFMYQRQFDDPDGYHYSPFWMKP ?
Ans: medium

Q: Class for HMVDQAFQTQLKNIQARTGKNLDELYAFIRASGLVKHGEIRDLAKRELSLGHGDANTLAKFYLESLAAAA ?
Ans: high

Q: Class for HMLSDAAAMESIAYEAIRQMEPDTYYIIGAGTTTRGIMEVLGLKNTLIGVDLIRNKELVANDLGGKELLSY ?
Ans: high

Q: Class for HMEEFLSFIADILEVDKNTLTLETSQDDVETWDSLMQLRLLGEIEAKYGVMIPMERISTIKKLNDFYQYIK ?
Ans: low

Q: Class for HMIDHKVIRSFRQKRNMTLQELAQKANLSVSYLSEIELGKKQPSLETLDKLSKALNISLEGL ?
Ans: medium

Q: Class for HMKYEGEDEYYASLVTEKIAAIGTVTEESEDAIKEARAAYDALTSAQKKLVTNYDVLDEAEK ?
Ans: medium

Q: Class for HMSSKFKIVGEILSIKKSDILYIIEILSNNEVVKATAVEDEIKDLKIGDKILLSSKAFNPIVNK ?
Ans: low

Q: Class for HMAKKDVESTLGGRLRVARVRAGLTQVELARMLGMNSVSLSNVEGGRRGLSMKQLVRVAKILEVPVAYLLG ?
Ans: low

Q: Class for HMGTMKGFVDGSSVHLRSGPSLSESIRAKVVKGQTLYITERRGDWYRATVHGGGEGWIHTSLVKLAG ?
Ans: low
